The reported measurements were obtained from ChEMBL document CHEMBL3351512.

Target: UniProtKB Q9Y5N1
Assay: Displacement of [3H]N-alpha-Methylhistamine from human recombinant H3 receptor expressed in HEK293 cells by competitive binding assay
Format: cell-based
Details: read-out: pKi (converted)
Entries annotated with measured Ki
Could you give me the number in nM? Just the number is fine.

The examples below pair each entry with its known result.
compound-smiles: O=C(c1ccccc1)n1c(=O)ccn(Cc2ccc(OCCCN3CCCCC3)cc2)c1=O
result-units: nM
measured: 7.24

compound-smiles: Cc1c(C)n(Cc2ccc(OCCCN3CCCCC3)cc2)c(=O)[nH]c1=O
result-units: nM
measured: 17.8

compound-smiles: CC(C)(C)OC(=O)n1ccc(=O)n(Cc2ccc(OCCCN3CCCCC3)cc2)c1=O
result-units: nM
measured: 50.1

Q) // map Cc1c(C)n(Cc2ccc(OCCCN3CCCCC3)cc2)c(=O)n(C(=O)c2ccccc2)c1=O to recorded Ki (system: UniProtKB Q9Y5N1)
A) 34.7

* * *

Target: Histamine H3 receptor (Homo sapiens)
Sequence (Q9Y5N1 whole entry): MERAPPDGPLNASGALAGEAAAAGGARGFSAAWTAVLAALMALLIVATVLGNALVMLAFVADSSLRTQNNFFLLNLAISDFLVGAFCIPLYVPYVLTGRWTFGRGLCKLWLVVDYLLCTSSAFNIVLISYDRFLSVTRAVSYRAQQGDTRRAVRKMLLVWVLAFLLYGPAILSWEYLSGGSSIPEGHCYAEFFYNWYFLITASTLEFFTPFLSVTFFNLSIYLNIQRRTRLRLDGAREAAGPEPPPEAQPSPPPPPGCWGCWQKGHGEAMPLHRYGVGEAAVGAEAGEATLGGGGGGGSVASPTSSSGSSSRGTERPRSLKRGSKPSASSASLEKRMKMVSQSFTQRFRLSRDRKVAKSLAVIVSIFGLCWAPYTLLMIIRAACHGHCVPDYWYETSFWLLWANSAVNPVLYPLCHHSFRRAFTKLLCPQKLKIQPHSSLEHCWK
Test: Displacement of [3H]N-alpha-Methylhistamine from human recombinant H3 receptor expressed in HEK293 cells by competitive binding assay
recorded-metric: IC50

Q) Requested read-out: IC50. Entry: CCN1CCc2nc(OC3CCN(C4CCC4)CC3)ncc2C1=O
A) ≤ 50 nM

* * *

Target: Histamine H3 receptor (Homo sapiens)
Test: Displacement of [3H]N-alpha-Methylhistamine from human recombinant H3 receptor expressed in HEK293 cells by competitive binding assay
Type: cell-based
Conditions: read-out: Ki
pKi: −log10 of the molar value.
recorded-metric: pKi

Q) Item O=c1cccnn1-c1ccc2nc(N3CC[C@@H](N4CCCCC4)C3)sc2c1 has what recorded pKi?
A) > 7.60

* * *

Biological target: Histamine H3 receptor (Homo sapiens)
Assay: Displacement of [3H]N-alpha-Methylhistamine from human recombinant H3 receptor expressed in HEK293 cells by competitive binding assay
Assay type: cell-based
Conditions: read-out: pKi (converted)
recorded-metric: Ki (nM)
Give the value in nM but do not write nM after it.

Before answering, review these 5 worked examples.
compound-smiles: Cc1c[nH]c(=O)n(Cc2ccc(OCCCN3CCCCC3)cc2)c1=O
Ki / nM: 63.1
//
compound-smiles: Cc1c(C)n(C(=O)OC(C)(C)C)c(=O)n(Cc2ccc(OCCCN3CCCCC3)cc2)c1=O
Ki / nM: 38
//
compound-smiles: Cc1cn(Cc2ccc(OCCCN3CCCCC3)cc2)c(=O)n(C(=O)c2ccccc2)c1=O
Ki / nM: 31.6
//
compound-smiles: Cc1cn(Cc2ccc(OCCCN3CCCCC3)cc2)c(=O)[nH]c1=O
Ki / nM: 7.08
//
compound-smiles: O=C(c1ccccc1)n1c(=O)ccn(CCCN2CCCCC2)c1=O
Ki / nM: 1150

Q) Please state recorded Ki (tested on Histamine H3 receptor (Homo sapiens)) of O=c1ccn(CCCN2CCCCC2)c(=O)[nH]1
A) 7080

Q) Hi! What's the reported Ki for O=c1cc[nH]c(=O)n1Cc1ccc(OCCCN2CCCCC2)cc1 on Histamine H3 receptor (Homo sapiens)?
A) 28.8

Q) Please provide the recorded Ki for Cc1cn(C(=O)OC(C)(C)C)c(=O)n(Cc2ccc(OCCCN3CCCCC3)cc2)c1=O , tested on Histamine H3 receptor (Homo sapiens).
A) 46.8

Q) Hi! What's the reported Ki for CC(C)N1CCCN(C(=O)C2CCN(c3ccc(C(F)(F)F)nc3)CC2)CC1 on Histamine H3 receptor (Homo sapiens)?
A) 0.126

Q) Record lookup: for Histamine H3 receptor (Homo sapiens), what Ki belongs to O=c1ccn(Cc2ccc(OCCCN3CCCCC3)cc2)c(=O)[nH]1 ?
A) 12.9
